- Tested on: M. tuberculosis H37Rv growth inhibition
- ASSAY_DETAILS: M. tuberculosis H37Rv growth inhibitors, H37Rv strain (AID 1626)
- RUN_PARAMETERS: measured here: Vero cell cytotoxicity

| COMPOUND | CC50 |
| --- | --- |
| Cc1ccccc1-n1ncc2c([N+](=O)[O-])cc([N+](=O)[O-])cc21 | > 40 µM |
| Cc1ccc(Oc2cc(NC(=O)CCCn3nc(C)c([N+](=O)[O-])c3C)cc([N+](=O)[O-])c2)cc1 | > 40 µM |
| Cc1ccc(-n2cc(CN(C)Cc3ncc[nH]3)c(-c3cccc(C)c3)n2)cc1 | > 40 µM |
| CC(C)Nc1ccc(Nc2ccnc3cc4ccccc4cc23)cc1 | 3.3 µM |
| CCN1CCN(Cc2ccc(NC(=O)c3cc(NC(=O)c4cncc(-c5ccc(C#N)cc5)c4)cc(OC)c3)cc2C(F)(F)F)CC1 | 5.63 µM |
| O=C1c2ccccc2-n2c1nc1ccccc1c2=O | > 40 µM |
| Cc1nn(-c2ccccc2)c2c1C(c1ccc([N+](=O)[O-])cc1)N1C(=N2)C(=O)Nc2ccccc21 (stereo not drawn) | > 40 µM |
| Cc1cc(NC(=O)c2ccc(C)s2)n(-c2nc3ccccc3[nH]2)n1 | > 40 µM |

---

Property: IC90; scope: individual compounds
- System: M. tuberculosis H37Rv growth inhibition
- ASSAY_DETAILS: M. tuberculosis H37Rv growth inhibitors, H37Rv strain (AID 1626)
- RUN_PARAMETERS: measured here: IC90 against H37Rv

| COMPOUND | UNITS | VALUE_OPERATOR | IC90 |
| --- | --- | --- | --- |
| Cc1ccc(-c2nc3c(cnn3-c3ccccc3)c(=O)o2)cc1 | µM | = | 13.4 |
| CSc1nc(N(C)C)c2ccccc2n1 | µM | > | 100 |
| CCOC(=O)Nc1ccc(C(=O)Oc2ccccc2)c(O)c1 | µM | > | 100 |
| Cc1ccc2nc(Cl)c(CNCc3ccccc3)cc2c1 | µM | = | 14.1 |
| CCn1c(/C=C/c2ccc([N+](=O)[O-])o2)nc2ccccc2c1=O | µM | = | 0.383 |
| COc1cc(/C=C/c2ccc3c(Br)cc(Br)c(O)c3n2)ccc1O | µM | = | 0.345 |
| O=C(O)c1[nH]c(=O)[nH]c(=O)c1F | µM | = | 18.4 |
| Cc1nc(SCc2ccc(F)cc2)c2oc3ccccc3c2n1 | µM | > | 100 |
| O=C1N(c2ccc3c(c2)OCCO3)C(c2ccccc2)C1(F)F (configuration not stated) | µM | = | 7.34 |
| Cc1ccc(NC(=O)COc2ccc(-n3ccnc3)cc2)cc1Cl | µM | = | 12.2 |
| Cn1c(O)c(C(=Nc2ccccc2)SCc2ccc(Cl)cc2)c(=O)n(C)c1=O | µM | = | 6.41 |
| COc1ccc(NC(=O)CCCSc2ccccc2)cc1 | µM | > | 100 |
| COc1ccc(Nc2ccccc2N)cc1 | µM | = | 2.46 |
| Nc1c(C(=O)NCc2ccccc2)c2nc3ccccc3nc2n1CCCN1CCOCC1 | µM | = | 17.1 |
| CN(C)CCCN(C(=O)CCc1ccccc1)c1nc2ccc(Br)cc2s1 | µM | = | 24.2 |
| Cc1cc(N2CCCCC2)nc2ccc(NC(=O)c3ccc(Br)o3)cc12 | µM | = | 3.38 |
| O=C1c2ccc3c4c(ccc(c24)C(=O)N1CCCCO)C(=O)N(CCCCO)C3=O | µM | = | 12.9 |
| O=C(CCNc1ccc(Cl)c(C(F)(F)F)c1)c1ccco1 | µM | > | 100 |
| O=C(CCc1ccc(Oc2cc([N+](=O)[O-])cc([N+](=O)[O-])c2)cc1)N1CCCCCC1 | µM | = | 15.6 |
| COc1ccc(Br)cc1C(C[N+](=O)[O-])c1c(N)n(C)c(=O)n(C)c1=O (configuration not stated) | µM | = | 12.5 |
| CCOC(=O)c1cnc(-n2nc(C)cc2C)nc1NC1CCCC1 | µM | = | 0.859 |
| Cc1ccc(C(O)(c2ccccc2)c2ccccc2C(C)N(C)C)c(C)c1 (configuration not stated) | µM | = | 19.9 |
| CCCn1c(NC(=O)c2ccccc2)nc2ccccc21 | µM | > | 100 |
| Cc1cccc(N=Nc2c(N)n[nH]c2-c2ccc(Cl)cc2)c1 | µM | > | 100 |
| COc1ccc2nc(SCC(=O)Nc3ccc4c(c3)CCC4)[nH]c2c1 | µM | > | 100 |
| CCCCn1c(NC(=O)C2CCCCC2)nc2ccccc21 | µM | > | 100 |
| COc1ccc(-c2csc(-c3cccs3)n2)cc1OC | µM | > | 100 |
| CC(C)c1ccc(C2C3=C(CC(C)(C)CC3=O)NC3=C2C(=O)c2ccccc23)cc1 (configuration not stated) | µM | > | 100 |
| COc1ccc(N/C=C/C(=O)c2sc(-c3ccccc3)nc2C)cc1 | µM | > | 100 |
| Cc1ccc(Cl)c(OC(=O)c2ccc(N3CCOCC3)c([N+](=O)[O-])c2)c1 | µM | > | 100 |
| COc1ccccc1NC(CC(=O)c1ccccc1)C(=O)OCC(=O)c1ccc(Br)cc1 (configuration not stated) | µM | = | 21.1 |
| CCCOC(=O)c1ccc(NC(=O)C2C3C=CC(O3)C2C(=O)O)cc1 (configuration not stated) | µM | > | 100 |

---

- Tested on: M. tuberculosis H37Rv growth inhibition
- ASSAY_DETAILS: M. tuberculosis H37Rv growth inhibitors, H37Rv strain (AID 1626)

| COMPOUND | IC50 |
| --- | --- |
| O=C(Nc1ccc(-c2csc(Nc3cccc(C(F)(F)F)c3)n2)cc1)c1cccc(C(F)(F)F)c1 | 0.954 µM |
| C=C1C(=O)O[C@@H]2C[C@@H](C)[C@@H]3C=CC(=O)[C@@]3(C)[C@@H](O)[C@H]12 | 3.84 µM |
| CC(C)(C)n1c(O)c(C=Nc2ccc3c(c2)CCC3)c(=O)[nH]c1=O | 37.8 µM |
| COc1ccccc1N1CCN(Cc2nc(N)nc(Nc3ccc(C)c(Cl)c3)n2)CC1 | 8.35 µM |
| Cc1ccc2nc(/N=C(\N)NC(=O)NC3CCCCC3)nc(C)c2c1 | 5.92 µM |
| Cc1ccc(S(=O)(=O)NCCC(=O)Nc2ccc(C)c(Cl)c2)cc1C | 19.8 µM |
| COc1ccc(N=Cc2cc(Cl)ccc2O)cc1Cl | 7.49 µM |
| Cc1ccc(C(O)(c2ccccc2)c2ccccc2C(C)N(C)C)c(C)c1 (centres undefined) | 11.7 µM |
| CCc1ccc(/C=c2\s/c(=C\C(=O)C(C)(C)C)[nH]c2=O)cc1 | 2.55 µM |
| Cc1occc1-c1nnc(SCC(=O)NCCc2ccccc2)o1 | 15 µM |
| CN(C)c1ccc(C(=O)Nc2nnc(-c3ccc(Cl)cc3)o2)cc1 | 0.895 µM |
| COc1ccc(-c2nnc(NC(=O)c3cc(Cl)ccc3Cl)o2)cc1 | 1.2 µM |
| N#C/C(=C(/O)COC(=O)CCC1CCCCC1)c1nc2ccccc2[nH]1 | 20.2 µM |
| CNC(=O)c1csc(-c2ccc(Cl)cc2)n1 | 38.6 µM |
| Cc1ccc(NC(=O)N2CCC(c3nc4c(nnn4Cc4cccc(Cl)c4)c(=O)[nH]3)CC2)cc1 | 5.13 µM |
| O=C(/C=C/c1cn(CC(O)CN2CCCCCC2)c2ccccc12)c1cccs1 (centres undefined) | 0.993 µM |
| Cc1scc(C(=O)NCc2ccco2)c1-c1ccccc1 | 2.81 µM |
| CCOc1ccc(Nc2nc(N)nc(CCl)n2)cc1 | 23.2 µM |
| CCN(CC)Cc1nc2c(c(=O)[nH]1)C1(CCCCC1)Cc1ccccc1-2 | 6.77 µM |
| Nc1nc(CCOc2ccc(F)cc2)cs1 | 22.4 µM |
| CCn1c(CNc2ccccc2Cl)nnc1SCC(=O)OC1CCCCC1 | 1.63 µM |
| CSc1ccc(/C=C/C(=O)c2ccc(NC(C)=O)cc2)cc1 | 28.4 µM |
| C=CCNc1nnc(Sc2ncccc2[N+](=O)[O-])s1 | 3.96 µM |
| OC(COCC(F)(F)C(F)(F)C(F)(F)C(F)F)Cn1c2ccc(Cl)cc2c2cc(Cl)ccc21 (centres undefined) | 7.11 µM |
| CNC(=O)C(=O)Nc1nc(C23CC4CC(CC(C4)C2)C3)cs1 | 62.7 µM |
| Cc1ccc(-c2ccc(SCC(=O)Nc3nonc3C)nn2)cc1 | 1.79 µM |
| CCSCc1nnc(SCC(=O)Nc2cccc(SC)c2)n1C | 43.5 µM |
| O=C(CSc1nc2ccccc2[nH]1)N1c2ccccc2Sc2ccccc21 | 17.4 µM |
| O=C(Nc1nccs1)c1ccccn1 | 6.09 µM |
| COc1ccc(N2CSC3=C(C#N)C(c4cccc(OC)c4OC)CC(=O)N3C2)cc1 (centres undefined) | 54.7 µM |
| CCOC(=O)c1c(C)oc2ccc(OC(=O)c3cccs3)cc12 | 2.08 µM |
| O=C(/C=C/c1ccccc1)/C=C/c1ccccc1 | 5.86 µM |
| CCOc1ccc(NCC(=O)Nc2ccc(Cl)cc2C)cc1 | 8.53 µM |
| O=C1CCCCc2sc(Br)c([N+](=O)[O-])c2N1 | 8.43 µM |
| COc1cc(OC)c(-c2nn3c(C4CCCCC4)nnc3s2)cc1OC | 2.2 µM |
| OC(CNCc1ccco1)Cn1c2ccc(Br)cc2c2cc(Br)ccc21 (centres undefined) | 2.76 µM |
| CCN(CC)C(=O)CSc1nnc2nnc3cc(Cl)ccc3n12 | 1.22 µM |
| O=C(OCc1cccc2ccccc12)c1ccc2c(=O)[nH]c(CN3CCOCC3)nc2c1 | 0.478 µM |
| Cc1cccc(C(=O)Nc2ccc(C(=O)/C=C/c3cccnc3)cc2)c1 | 6.04 µM |
| O=C1N=C2N(CCN3CCCCC3)c3ccccc3N2/C1=C\c1ccc([N+](=O)[O-])o1 | 1.56 µM |
| CCCCc1ccc(NC=C2C(=O)OC3(CCCCC3)OC2=O)cc1 | 6.18 µM |
| O=C(OC(c1ccccc1)c1nccc2ccccc12)c1cc([N+](=O)[O-])cc([N+](=O)[O-])c1 (centres undefined) | 2.14 µM |
| CCOC(=O)N1C/C(=C\c2ccccc2)C(=O)/C(=C/c2ccccc2)C1 | 2.11 µM |
| CCOC(=O)CSc1nnc(-c2cccc(Br)c2)o1 | 0.486 µM |
